Where do the numbers come from? From the Human Domainome abundance scans (Beltran et al. 2025).

B1: DnaJ homolog subfamily C member 2, residues 451 to 503; numbered along this chain, Q99543 (parent)
chain: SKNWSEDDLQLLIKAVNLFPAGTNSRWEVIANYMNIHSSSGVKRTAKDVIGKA

Variants of: B1
protocol-text: abundance fitness (aPCA) (normalised: wild type 0, dead -1); higher = more abundant; growth selection in yeast, the domain comes from the species named
measurement-context: Homo sapiens
Outcome label depends on abundance fitness relative to -0.2: at/above gives YES, below gives NO.

>  <mutation-string>
A53P

>  <label>
NO

$$$$
>  <mutation-string>
E6H

>  <label>
NO

$$$$
>  <mutation-string>
G41E

>  <label>
YES

$$$$
>  <mutation-string>
N17S

>  <label>
YES

$$$$
>  <mutation-string>
A46N

>  <label>
NO

$$$$

Kindly determine if abundance fitness recorded for `N35M` is above or exactly -0.2.
NO

Kindly determine if abundance fitness recorded for `I50E` is above or exactly -0.2.
YES

Kindly determine if abundance fitness recorded for `I13F` is above or exactly -0.2.
YES

Kindly determine if abundance fitness recorded for `I36F` is above or exactly -0.2.
YES

Kindly determine if abundance fitness recorded for `A31W` is above or exactly -0.2.
NO
